The origin of these recorded values is the supplement of paper PMC4371806.

- Tested on: Escherichia coli BW25113
- assay_method_text: plate-normalized OD600 growth (mean of duplicates) (OD600 (normalized)); higher = more growth (less inhibition)
- condition_description: temperature: 15°C; 48 h; 10 µM
The full ranking holds about 2,300 compounds; the median of “plate-normalized OD600 growth (mean of duplicates)” is about 0.29, and the lowest 2% start at about 0.22. This is one part of a sample in which the lowest values are shown more often than they occur.
Record form. Attribute: plate-normalized OD600 growth. Fill in for each entry.
Numbers only.

Study these solved cases before continuing.
>>> result_number("Cc1c(Br)sc2ccc(Cl)cc12")
0.247
>>> result_number("CC(C(=O)O)C(=O)c1cc(Cl)c(Cl)cc1Cl (configuration not stated)")
0.215
>>> result_number("COc1cccc(C2C3=C(CC(C)(C)CC3=O)OC(N)=C2[N+](=O)[O-])c1 (configuration not stated)")
0.246
>>> result_number("CSc1nc2sc(C)c(C)c2c(=O)n1-c1ccccc1")
0.219
>>> result_number("CCOC(=O)c1c(N)oc2c(-c3ccc(C)c(Cl)c3)c3c(C(=O)OCC)c(N)oc3cc12")
0.218

Each compound below has a recorded value; state its plate-normalized OD600 growth.
1. Cc1ccc(NC(=O)c2c3c(nc4ccccc24)CCCC3)cc1
2. CCC(=O)Nc1nc2ccc(C)cc2s1
3. C=CCn1c2ccccc2c2nnc(SCC(=O)Nc3ncccn3)nc21
4. c1ccc(OCCOc2ccccn2)nc1
5. Cc1c(NC(=O)c2ccc(N)cc2)c(=O)n(-c2ccccc2)n1C

Response:
1. 0.239
2. 0.246
3. 0.245
4. 0.25
5. 0.248

Okay, here is my list. What is plate-normalized OD600 growth for each of these?
1. O=c1nc(-c2ccccc2)nc(-c2ccccc2)[nH]1
2. COc1cc(OC)c(C2C(C#N)=C(N)Oc3n[nH]c(-c4cccnc4)c32)cc1OC (configuration not stated)

Response:
[0.26, 0.244]

###

- Test system: Escherichia coli BW25113
- assay_method_text: plate-normalized OD600 growth (mean of duplicates) (OD600 (normalized)); higher = more growth (less inhibition)
- condition_description: temperature: 37°C; 24 h; 10 µM
Over roughly 2,300 compounds, “plate-normalized OD600 growth (mean of duplicates)” has its median near 0.29; the lowest 2% begin near 0.22. The sample holds the lowest values, similar compounds and a random draw of the others, so the mix is not that of the screen.
Provide the recorded plate-normalized OD600 growth for the entries that follow.
One number for each entry.

>>> result_number("O=C(O)c1cccc(S(=O)(=O)Nc2ccc(Cl)cc2)c1")
0.625
>>> result_number("C/C(=N/NC(=O)COc1cccc(Cl)c1)c1ccc(Cl)cc1")
0.631
>>> result_number("Cc1ccc(NC(=O)c2c3c(nc4ccccc24)CCCC3)cc1")
0.614
>>> result_number("O=C(Nc1nc(-c2ccccc2)cs1)C1CC(O)CN1C(=O)Oc1ccccc1 (centres undefined)")
0.648
>>> result_number("O=C1CC2(CCCC2)C(=O)N1CCNc1nccc(C(F)(F)F)n1")
0.637

Kindly give each listed record's plate-normalized OD600 growth.
1. CCN=C(NCC)SC1CC(=O)N(c2ccc(C(=O)O)cc2)C1=O (centres undefined)
2. Cc1ccc(N(C)C(=S)Nc2ccc3nc[nH]c(=O)c3c2)cc1C
3. c1ccc(OCCOc2ccccn2)nc1
4. N#Cc1cc(I)c(C#N)c(I)c1

Response:
1. 0.617
2. 0.625
3. 0.612
4. 0.616

# map each compound to its plate-normalized OD600 growth
1. Clc1cccc(CN2CCN(Cc3ccco3)CC2)c1
2. Cc1nc(Nc2ccc(F)cc2)c2oc3ccccc3c2n1
3. CSCCC(NC(=O)c1ccccc1)C(=O)OCC(=O)Nc1ccccc1C#N (centres undefined)
4. NC(=O)C1CCN(CCC(=O)Nc2ccccc2)CC1
5. CC(=O)c1cnn(-c2ccccc2)c1C
6. CC(C)(C)OC(=O)NC(Cc1ccc(OCc2ccccc2)cc1)C(=O)O (centres undefined)
7. COC(=O)C1=NN(c2ccccc2Cl)C2(S1)c1ccccc1C(C)=NN2c1ccccc1 (centres undefined)

Response:
1: 0.636; 2: 0.613; 3: 0.619; 4: 0.651; 5: 0.623; 6: 0.615; 7: 0.641

Dear colleague, could you send me plate-normalized OD600 growth for each of the items below? Thanks.
1. CCCCCCCCNC(=O)C(=O)Nc1cccc(F)c1
2. COc1ccc(-c2cc(C(F)(F)F)n3nc(C(=O)NC(C)(C)C)c(Cl)c3n2)cc1OC

Response:
[0.564, 0.619]

Hey, quick one: what's plate-normalized OD600 growth for each of these?
1. CN(C)N=Nc1ccc(S(=O)(=O)NC(=O)Cc2ccccc2)cc1
2. COc1ccc(C2SCC(=O)N2CCN2CCCCC2)cc1 (centres undefined)
3. CC1CCN(CCC(=O)Nc2ccc(Cl)cc2)CC1
4. Cc1ccc(C=Nc2ccc(-c3ccc(N=Cc4ccc(C)o4)c(C)c3)cc2C)o1

Response:
1. 0.612
2. 0.618
3. 0.643
4. 0.622

# per-item lookup of plate-normalized OD600 growth; items listed below
1. CCOC(=O)c1c(N)oc2c(-c3ccc(C)c(Cl)c3)c3c(C(=O)OCC)c(N)oc3cc12
2. CCc1nc(N)c(C#N)c(-c2ccccc2)c1C

Response:
1. 0.622
2. 0.61

###

- Tested on: Escherichia coli BW25113
- assay_method_text: plate-normalized OD600 growth (mean of duplicates) (OD600 (normalized)); higher = more growth (less inhibition)
- condition_description: temperature: 15°C; 48 h; 10 µM
Over roughly 2,300 compounds, “plate-normalized OD600 growth (mean of duplicates)” has its median near 0.29; the lowest 2% begin near 0.22. For the sample, the lowest values were picked, then their nearest neighbours and some compounds at random.
outcome_measure: plate-normalized OD600 growth
One number for each entry.

Reference set (4 entries):
>>> result_number("O=C(NNC(=O)c1ccccc1OCc1ccccc1)c1ccc(Cl)c(Cl)c1")
0.216
>>> result_number("O=C1c2cccc3c(SCCO)ccc(c23)C(=O)N1CCc1ccccn1")
0.265
>>> result_number("O=C(O)c1oc(C(=O)O)c(OCc2ccccc2)c1OCc1ccccc1")
0.263
>>> result_number("CCOC(=O)C(=CNNC(=O)c1ccccc1-n1cccc1)C(=O)OCC")
0.213

Working through the 3 compounds below one at a time, give plate-normalized OD600 growth for each.
1. Cc1ccccc1COC(=O)c1ccc(-c2nnn(Cc3ccccc3C)n2)cc1
2. CCOC(=O)C(=CNNS(=O)(=O)c1cc(C(F)(F)F)cc(C(F)(F)F)c1)C(=O)OCC
3. CCOC(=O)C(=CNNc1ccnc2cc(Cl)ccc12)C(=O)OCC

Response:
1: 0.244; 2: 0.246; 3: 0.26

###

- System: Escherichia coli BW25113
- assay_method_text: plate-normalized OD600 growth (mean of duplicates) (OD600 (normalized)); higher = more growth (less inhibition)
- condition_description: temperature: 37°C; 24 h; 10 µM
In all, about 2,300 compounds were measured (“plate-normalized OD600 growth (mean of duplicates)”: median about 0.29, lowest 2% from about 0.22 on). This is one part of a sample in which the lowest values are shown more often than they occur.
outcome_measure: plate-normalized OD600 growth
Numbers only.

Use these answered entries as a reference point.
>>> result_number("C=CCn1c2ccccc2c2nnc(SCC(=O)Nc3ncccn3)nc21")
0.599
>>> result_number("CCOc1cc(/C=N/n2cnc3sc4c(c3c2=O)CCCC4)cc(Br)c1OCc1ccc(Cl)cc1")
0.619
>>> result_number("c1ccc2c(c1)OCCCOc1ccccc1OCCCO2")
0.607
>>> result_number("CC(C)(C)NC(=O)c1cc(NC(=O)C(F)(F)F)cc(NC(=O)C(F)(F)F)c1")
0.605

From here, focus on the item given below.
Memo: COc1ccc(C(=O)NCC(=O)N/N=C(\C)c2cccc(N)c2)cc1OC , reported plate-normalized OD600 growth: 0.633

###

Provide the recorded plate-normalized OD600 growth for the entries that follow.
- System: Escherichia coli BW25113
- assay_method_text: plate-normalized OD600 growth (mean of duplicates) (OD600 (normalized)); higher = more growth (less inhibition)
- condition_description: temperature: 15°C; 48 h; 10 µM
Whole data set: some 2,300 compounds, median “plate-normalized OD600 growth (mean of duplicates)” near 0.29, cut for the lowest 2% near 0.22. The list comes from a sample in which the lowest values are over-represented; it also holds close analogues and randomly drawn compounds.
Give bare numbers.

>>> result_number("C/C(=N/NC(=O)COc1cccc(Cl)c1)c1ccc(Cl)cc1")
0.248
>>> result_number("Clc1cccc(CN2CCN(Cc3ccco3)CC2)c1")
0.237
>>> result_number("NC1=Nc2nc(Nc3ccccc3)sc2/C(=C/c2ccc(O)cc2)N1")
0.248
>>> result_number("O=C1C(Cl)=C(Oc2cc(Cl)c(Cl)cc2Cl)C(=O)c2ccccc21")
0.211
>>> result_number("Cc1cccc(C2(c3cccc(C)c3)CC2C(=O)Nc2ccc(C#N)cc2)c1 (stereo not drawn)")
0.232

Each molecule below has a reported value. Please supply its plate-normalized OD600 growth.
1. O=C(Nc1ccccc1C(=O)NC1CCCCNC1=O)c1cccs1 (stereo not drawn)
2. Nc1[nH]c(=O)c(CO)c(N)c1S(=O)(=O)c1ccccc1
3. CC(C)CSc1ncnc2scc(-c3ccccc3)c12
4. C=CCn1c(C(O)c2ccccc2)n[nH]c1=S (stereo not drawn)
5. CSc1ccc(/C=C2\N=C(c3ccccc3)N(c3ccc(C(=O)Nc4ccc(Br)cc4)cc3)C2=O)cc1
6. N=c1c(S(=O)(=O)c2ccccc2)c(N)c(CO)c2sc3ccccc3n12
7. COc1cc(C(=S)N2CCCCC2)ccc1OC(=O)c1ccccc1
8. COc1ccc(S(=O)(=O)N(Cc2ccccc2)c2ccccc2C(=O)N/N=C(\C)c2ccccc2O)cc1

Response:
1: 0.253; 2: 0.211; 3: 0.235; 4: 0.247; 5: 0.257; 6: 0.236; 7: 0.00796; 8: 0.259

// each molecule listed below needs its plate-normalized OD600 growth
1. COc1cc(Cl)c(Cl)cc1Cl
2. COc1ccc(C(=O)N2CCN(c3c(C)cccc3C)CC2)cc1OC

Response:
[0.251, 0.257]

Would you be so kind as to report plate-normalized OD600 growth for each listed record?
1. Cc1ccc2nc(Cl)c(C=Nc3ccccn3)cc2c1
2. Cc1cc(C)c(C(=O)CSc2nc3ccccc3[nH]2)c(C)c1
3. O=[N+]([O-])c1ccc2c(c1)S(=O)(=O)N=C2Nc1cc(Cl)ccc1Cl
4. CC(C)(C)S(=O)(=O)/C(C#N)=C/N1CCCCC1
5. Cc1cccc(-n2c(C)cc(C=Nc3ccc(Cl)cc3O)c2C)c1
6. O=C(CSc1nc2ccccc2[nH]1)Nc1nc2ccccc2s1
7. CCOC(=O)COc1nc(-c2ccccc2)cc(-c2ccccc2)c1C#N
8. COC(=O)CSc1nc(N)cc(=O)[nH]1

Response:
[0.226, 0.213, 0.251, 0.267, 0.249, 0.244, 0.251, 0.247]
